- target_desc: HIV-1 REJO4541.67 envelope (Env) on Env.IMC.LucR virus (HIV-1 clade B)
- assay_remarks: cell-based or functional assay
test_readout: IC50 of virus neutralization (TZM-BL, luciferase) (mg/L)

{"binder": "Germ23_NglycoSA_CysCV (antibody, V domains shown) VH: QVQLVQSGAEVKKPGASVKVSCEASGYRFPDYIIHWIRRAPGQGPEWMGWMNPMGGQVNIPWKFQGRVSMTRDTSIETAYMELRGLRSDDTAVYYCVRDRSNGAGKRFESSNWFLDLWGRGTLVTVSS VL: QSALTQPRSVSGSPGQSVTISCTGTHNLVSWVQHHPGKAPKLMIYDFNKRPSGVPDRFSGSGSGGTASLTISGLQAEDEAEYFCWAYEAFGGGTKLTVL", "censoring_sign": "≤", "result": 0.02}
{"binder": "Germ18 (antibody, V domains shown) VH: QVQLVQSGAEVKKPGASVKVSCEASGYRFPDYIIHWIRRAPGQGPEWMGWMNPMGGQVNIPWKFQGRVSMTRDTSIETAYMELRGLRSDDTAVYYCVRDRSNGSGKRFESSNWFLDLWGRGTLVTVSS VL: QSALTQPRSVSGSPGQSVTISCTGTHNLVSWCQHQPGRAPKLLIYDFNKRPSGVPDRFSGSGSGGTASLTISGLQDEDDAEYFCWAYEAFGGGTKLTVL", "censoring_sign": "=", "result": 0.039}
{"binder": "NVS49-L1A2 (antibody, V domains shown) VH: ADLVQSGAVVKKPGDSVRISCEAQGYRFPDYIIHWIRRAPGQGPEWMGWMNPMGGQVNIPWKFQGRVSMTRDTSIETAFLDLRGLKSDDTAVYYCVRDRSNGSGKRFESSNWFLDLWGRGTAVTIQS VL: QSALTQPRSVSASPGQSVTISCTGTHNLVSWCQHQPGRAPKLLIYDFNKRPSGVPDRFSGSGSGGTASLTITGLQDDDDAEYFCWAYEAFGGGTKLTVL", "censoring_sign": "=", "result": 0.072}
{"binder": "Germ17 (antibody, V domains shown) VH: QVDLVQSGAVVKKPGDSVRVSCEAQGYRFPDYIIHWIRRAPGQGPEWMGWMNPMGGQVNIPWKFQGRVSMTRDTSIETAYMDLRGLRSDDTAVYYCVRDRSNGSGKRFESSNWFLDLWGRGTLVTVSS VL: QSALTQPRSVSGSPGQSVTISCTGTHNLVSWCQHHPGKAPKLMIYDFNKRPSGVPDRFSGSGSGGTASLTISGLQAEDEAEYFCWAYEAFGGGTKLTVL", "censoring_sign": "=", "result": 0.033}

Hello, the source for this data is patent US20210040184A1, in case you need it.
